The reported measurements were obtained from the supplement of paper PMC11061612.

Below: a set of entries, each annotated with reported combination Emax.
Tested on: SiHa (Cervical Carcinoma)
assayOverview: combination Emax (second highest fraction inhibited in the dose matrix, 72 h); higher = more inhibition; extreme values may be limits of the assay
// no unit, no text: just the number

Answered cases to consult:
[[record]]
molecule = "COc1cc2ncnc(Nc3ccc(F)c(Cl)c3)c2cc1OCCCN1CCOCC1 [Gefitinib] + CC(C)n1c(=O)n(C)c2cnc3cc(F)c(-c4ccc(OCCCN5CCCCC5)nc4)cc3c21 [AZD1390] (first compound max 10 µM, 7x7, partner max 0.3 µM)"
measuredvalue = 0.0755

[[record]]
molecule = "CN(CCO)CC[C@H](CSc1ccccc1)Nc1ccc(S(=O)(=O)NC(=O)c2ccc(N3CCC([C@@H](O)c4ccccc4-c4ccc(Cl)cc4)CC3)cc2)cc1S(=O)(=O)C(F)(F)F [AZD4320] + C[C@@H](Nc1cc(F)cc(F)c1)c1cc(C(=O)N(C)C)cc2c(=O)cc(N3CCOCC3)oc12 [AZD8186] (first compound max 1 µM, 7x7, partner max 3 µM)"
measuredvalue = 0.33

[[record]]
molecule = "COc1cccc2c1C(=O)c1c(O)c3c(c(O)c1C2=O)C[C@@](O)(C(=O)CO)C[C@@H]3O[C@H]1C[C@H](N)[C@H](O)[C@H](C)O1 [Doxorubicin] + Cc1cc2ncnn2cc1Nc1ncc2c(n1)n(C1CCOCC1)c(=O)n2C [AZD7648] (first compound max 1 µM, 7x7, partner max 10 µM)"
measuredvalue = 0.571


Give its combination Emax value. Item: CC(=O)c1c(C)c2cnc(Nc3ccc(N4CCNCC4)cn3)nc2n(C2CCCC2)c1=O [Palbociclib] + CC1(C)CCC(CN2CCN(c3ccc(C(=O)NS(=O)(=O)c4ccc(NCC5CCOCC5)c([N+](=O)[O-])c4)c(Oc4cnc5[nH]ccc5c4)c3)CC2)=C(c2ccc(Cl)cc2)C1 [Venetoclax] (first compound max 10 µM, 7x7, partner max 1 µM)
0.123

Given CN(CCO)CC[C@H](CSc1ccccc1)Nc1ccc(S(=O)(=O)NC(=O)c2ccc(N3CCC([C@@H](O)c4ccccc4-c4ccc(Cl)cc4)CC3)cc2)cc1S(=O)(=O)C(F)(F)F [AZD4320] + CN(C)CCCOc1ccc(-c2ccc3ncc4c(c3c2)n(C2CCOCC2)c(=O)n4C)cn1 [AZD0156] (first compound max 1 µM, 7x7, partner max 1 µM) , state its recorded combination Emax.
0.108

Which combination Emax value belongs to COc1nnc2ccc(N3CCC(c4ccc(OCCN5CCN(C)C(=O)[C@H]5C)cc4)CC3)nn12 [AZD5153] + CN(CC[C@H](CSC1=CC=CC=C1)NC2=C(C=C(C=C2)S(=O)(=O)NC(=O)C3=CC=C(C=C3)N4CCC(CC4)[C@H](C5=CC=CC=C5C6=CC=C(C=C6)Cl)O)S(=O)(=O)C(F)(F)F)CCO [AZD4320] (first compound max 1 µM, 7x7, partner max 1 µM) ?
0.527

----------
Test system: MS-1 (Small Cell Lung Carcinoma)
assayOverview: combination Emax (second highest fraction inhibited in the dose matrix, 72 h); higher = more inhibition; extreme values may be limits of the assay
A collection of compounds and their measured combination Emax
Could you respond with only the numeric value?

[[record]]
compound = "NC1(C(=O)N[C@@H](CCO)c2ccc(Cl)cc2)CCN(c2ncnc3[nH]ccc23)CC1 [Capivasertib] + Cn1cnc2c(F)c(Nc3ccc(Br)cc3Cl)c(C(=O)NOCCO)cc21 [Selumetinib] (first compound max 10 µM, 7x7, partner max 10 µM)"
assaymetric = "combination Emax"
measuredvalue = 0.267


With those in mind, consider the next compound.
Which measured combination Emax value corresponds to C=CCn1c(=O)c2cnc(Nc3ccc(N4CCN(C)CC4)cc3)nc2n1-c1cccc(C(C)(C)O)n1 [AZD1775] + CCc1c2c(nc3ccc(O)cc13)-c1cc3c(c(=O)n1C2)COC(=O)[C@]3(O)CC [SN-38] (first compound max 1 µM, partner max 0.3 µM) ?
0.86
